Assayed Target: Human DGKα(9-727) (Homo sapiens (Human), UniProt P23743)
Sequence (P23743 whole entry, looked up): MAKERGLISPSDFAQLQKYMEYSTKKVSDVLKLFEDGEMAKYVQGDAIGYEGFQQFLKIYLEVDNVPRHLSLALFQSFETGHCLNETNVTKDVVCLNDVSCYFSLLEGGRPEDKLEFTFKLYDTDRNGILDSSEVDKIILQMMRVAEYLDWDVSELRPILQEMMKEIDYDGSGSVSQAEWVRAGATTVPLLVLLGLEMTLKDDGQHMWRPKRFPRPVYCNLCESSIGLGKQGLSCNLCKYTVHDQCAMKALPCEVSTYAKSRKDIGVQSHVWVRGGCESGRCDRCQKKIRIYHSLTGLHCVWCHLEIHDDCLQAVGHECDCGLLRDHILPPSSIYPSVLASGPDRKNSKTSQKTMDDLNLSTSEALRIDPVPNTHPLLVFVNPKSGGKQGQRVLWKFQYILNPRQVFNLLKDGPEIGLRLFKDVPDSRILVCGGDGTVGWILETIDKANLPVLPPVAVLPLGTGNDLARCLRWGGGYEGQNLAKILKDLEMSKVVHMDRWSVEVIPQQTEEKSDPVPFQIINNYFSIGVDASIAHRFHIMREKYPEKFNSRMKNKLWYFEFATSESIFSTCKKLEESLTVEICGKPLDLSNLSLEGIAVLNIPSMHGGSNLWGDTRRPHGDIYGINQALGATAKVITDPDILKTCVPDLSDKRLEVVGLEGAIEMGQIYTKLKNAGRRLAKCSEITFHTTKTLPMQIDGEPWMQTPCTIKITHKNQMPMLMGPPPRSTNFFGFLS
Assay Method Text: biochemical
Assay Context: Table A; liposome (LIPGLO) assay; read-out: DGKα
pIC50: −log10 of the molar value.

| Molecule | Assayed Target | pIC50 |
| --- | --- | --- |
| Cn1c(=O)nc(N2CC[C@@H](Oc3cccc(C(F)(F)F)c3)[C@H](O)C2)c2nc(C#N)ccc21 (single isomer, unassigned) | Human DGKα(9-727) (Homo sapiens (Human), UniProt P23743) | 4.85 |
| CC[C@@H]1CN(c2cc(=O)n(C)c3ccc(C#N)nc23)[C@@H](C)C[C@@H]1Oc1cccc(C(F)(F)F)c1 | Human DGKα(9-727) (Homo sapiens (Human), UniProt P23743) | 5.37 |
| CO[C@@H]1CN(c2cc(=O)n(C)c3ccc(C#N)nc23)CC[C@H]1Oc1cccc(C(F)(F)F)c1 (single isomer, unassigned) [Example 261] | Human DGKα(9-727) (Homo sapiens (Human), UniProt P23743) | 6.70 |
| COc1ccc(NC2C[C@H](C)N(c3cc(=O)n(C)c4ccc(C#N)nc34)C[C@H]2C)nc1 (single isomer, unassigned) [Example 281] | Human DGKα(9-727) (Homo sapiens (Human), UniProt P23743) | 5.57 |
| CC1CN(c2c(C#N)c(=O)n(C)c3ccc(C#N)nc23)CCC1N(C)Cc1ccc(F)cc1 (single isomer, unassigned) [Example 322] | Human DGKα(9-727) (Homo sapiens (Human), UniProt P23743) | 5.17 |
| CCO[C@H]1CN(c2cc(=O)n(C)c3ccc(C#N)nc23)CC[C@H]1Oc1cccc(C(F)(F)F)c1 (single isomer, unassigned) | Human DGKα(9-727) (Homo sapiens (Human), UniProt P23743) | 5.29 |
| CCO[C@@H]1CN(c2cc(=O)n(C)c3ccc(C#N)nc23)CC[C@H]1Oc1cccc(C(F)(F)F)c1 | Human DGKα(9-727) (Homo sapiens (Human), UniProt P23743) | 5.40 |
| CC(C)Oc1ccc(OC2C[C@@H](C)N(c3nc(=O)n(C)c4ccc(C#N)nc34)C[C@H]2C)nc1 (single isomer, unassigned) [Example 244] | Human DGKα(9-727) (Homo sapiens (Human), UniProt P23743) | 6.49 |
| Cn1c(=O)nc(N2CC[C@@H](Oc3cccc(C(F)(F)F)c3)[C@H](O)C2)c2nc(Cl)ccc21 (racemic) [Example 271] | Human DGKα(9-727) (Homo sapiens (Human), UniProt P23743) | 5.00 |
| CC1CN(c2c(C#N)c(=O)n(C)c3ccc(C#N)nc23)CCC1N(C)Cc1ccc(F)cc1 (single isomer, unassigned) [Example 325] | Human DGKα(9-727) (Homo sapiens (Human), UniProt P23743) | 4.31 |
| CO[C@@H]1CN(c2nc(=O)n(C)c3ccc(C#N)nc23)CC[C@H]1Oc1cccc(C(F)(F)F)c1 (single isomer, unassigned) [Example 276] | Human DGKα(9-727) (Homo sapiens (Human), UniProt P23743) | 6.00 |
| CC1CN(c2c(C#N)c(=O)n(C)c3ccc(C#N)nc23)CCC1N(C)Cc1ccc(F)cc1 (single isomer, unassigned) [Example 324] | Human DGKα(9-727) (Homo sapiens (Human), UniProt P23743) | 3.89 |

Origin of measurements: patent US11964973B2
